experimental-target: Mu-type opioid receptor (Homo sapiens, UniProt P35372)
Sequence (P35372 whole entry): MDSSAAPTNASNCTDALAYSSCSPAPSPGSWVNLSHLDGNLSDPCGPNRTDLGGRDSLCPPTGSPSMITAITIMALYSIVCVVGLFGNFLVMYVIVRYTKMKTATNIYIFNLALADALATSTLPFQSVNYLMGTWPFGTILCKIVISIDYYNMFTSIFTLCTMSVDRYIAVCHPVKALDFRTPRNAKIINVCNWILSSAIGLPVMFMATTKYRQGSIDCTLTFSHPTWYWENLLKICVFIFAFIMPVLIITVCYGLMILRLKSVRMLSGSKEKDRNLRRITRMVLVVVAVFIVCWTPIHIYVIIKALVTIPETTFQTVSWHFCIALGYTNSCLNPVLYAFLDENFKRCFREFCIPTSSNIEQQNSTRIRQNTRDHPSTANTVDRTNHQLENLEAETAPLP
assay-details: Displacement of [3H]DAMGO from mu opioid receptor in human SH-SY5Y cells
pKi: −log10 of the molar value. Residues, ends and D or L forms follow the SMILES beside them.
Quick list: pKi per entry.

{"compound": "C[C@H](NC(=O)[C@@H]1CCCN1C(=O)[C@@H](N)Cc1ccc(O)cc1)C(=O)N[C@@H](Cc1ccccc1)C(N)=O (H-YPAF-NH2)", "pKi": 6.65}
{"compound": "C[C@H](NC(=O)[C@H](C)NC(=O)[C@@H]1CCCN1C(=O)[C@@H](N)Cc1ccc(O)cc1)C(N)=O (H-YPAA-NH2)", "pKi": 6.15}
{"compound": "C[C@H](NC(=O)[C@H](Cc1c[nH]c2ccccc12)NC(=O)[C@@H]1CCCN1C(=O)[C@@H](N)Cc1ccc(O)cc1)C(N)=O (H-YPWA-NH2)", "pKi": 7.14}
{"compound": "C[C@H](NC(=O)[C@@H](N)Cc1ccc(O)cc1)C(=O)N[C@@H](Cc1c[nH]c2ccccc12)C(=O)N[C@@H](Cc1ccccc1)C(N)=O (H-YAWF-NH2)", "pKi": 5.50}
